B1: H2-Kb / B15 (parent complex)
chain 1: QQQVRQSPQSLTVWEGETAILNCSYENSAFDYFPWYQQFPGEGPALLISILSVSDKKEDGRFTIFFNKREKKLSLHIADSQPGDSATYFCAASAASNNRLTLGKGTQVVVLP
chain 2: DSGVVQSPRHIIKEKGGRSVLTCIPISGHSNVVWYQQTLGKELKFLIQHYEKVERDKGFLPSRFSVQQFDDYHSEMNMSALELEDSAMYFCASSRRADAEQFFGPGTRLTVL
chain 3: not shown
chain 4: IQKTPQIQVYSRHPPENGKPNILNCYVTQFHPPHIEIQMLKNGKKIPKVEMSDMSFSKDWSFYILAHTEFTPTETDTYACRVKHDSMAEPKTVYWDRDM
chain 5: SIINFEKL

Variants of: B1
Test Summary: % of reporter cells activated (NFAT-GFP), raw; further: test concentration or dose not given here
Readout Label: ratio to parent
Please reply with the number alone, leaving off any unit.

Some solved entries appear below for comparison.
Sequence Variant	ratio to parent
chain 5 I3T	0.273
chain 5 E6G	0.491
chain 5 I3W	0.479

In plain terms, chain 5 I2L has a documented ratio to parent of 1.03
